From: the RNAGym collection of RNA variant scans (doi:10.1073/pnas.2313332121)

B1: TPR t1 (parent)
chain: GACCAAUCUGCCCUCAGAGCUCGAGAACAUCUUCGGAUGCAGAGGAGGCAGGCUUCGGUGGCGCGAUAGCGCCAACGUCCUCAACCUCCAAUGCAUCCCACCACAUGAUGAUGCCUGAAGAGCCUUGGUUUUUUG

# Variants of: B1
# testProtocol: polymerase ribozyme fitness, log enrichment relative to wild type (log ratio); higher = more active; in vitro selection for triplet polymerase activity
I'd appreciate it if you could supply polymerase ribozyme fitness (log ratio) values for the items below.

Known results for variants:
G42A C82U :: -1.95
A6C G71C C79U :: -0.784

// input: 2 variants below; output: polymerase ribozyme fitness (log ratio) for each
1. C89A C123U C124G
2. G71U C82G G117A

1. 1.14
2. -2.4
